- system name: CXCR7 (Homo sapiens (Human))
- procedure details: PathHunter CHO-K1 CXCR7 b-arrestin assay (agonistic activity)
- measurement parameters: PathHunter CHO-K1 CXCR7 b-arrestin cell line

# compound, EC50 (nM)
records = [
    ("Cc1cncc(C(=O)Nc2cccc(CN3CCCC(C(=O)NC4CCCCC4)CC3)c2)c1 (racemic) [Example 1.291]", 134),
    ("COc1ccc(C(=O)Nc2cccc(CN3CCC(C(=O)NC4CCCCC4)CC3)c2)cc1 [Example 1.031]", 2),
    ("CC(C)Cc1cc(C(=O)Nc2cccc(C(C)N3CCC(C(=O)NC4CCCCC4)CC3)c2)n(C)n1 (racemic) [Example 1.189]", 15),
    ("O=C(Nc1cc(CN2CCC(C(=O)NC3CCCCC3)CC2)ccc1Cl)c1ccncn1 [Example 1.157]", 2),
    ("O=C(Nc1cccc(CN2CCC(C(=O)NC3CCCCC3)CC2)c1)c1c[nH]c2ccccc12 [Example 1.027]", 42),
    ("Cn1cnc(C(=O)Nc2cccc(CN3CCC(C(=O)NC4CCCCC4)CC3)c2)c1 [Example 1.051]", 130),
    ("C[C@H]1C[C@@H](C(=O)NC2CCCCC2)CCN1Cc1cccc(NC(=O)c2cccc(C(F)(F)F)n2)c1 [Example 2.105]", 3),
    ("CC(C)(C)NC(=O)C1CCN(Cc2cccc(NC(=O)c3ccc(F)cc3)c2)CC1 [Example 1.223]", 0.5),
    ("Cc1cncc(C(=O)Nc2cccc(CN3CCC(C(=O)NC4CCCC4)CC3)c2)c1 [Example 6.002]", 4),
    ("CCc1ccc(CN2CCC(C(=O)NC(C)(C)C)CC2)cc1NC(=O)c1cncc(C)c1 [Example 1.327]", 28),
    ("Cc1sc(C(=O)Nc2cccc(CN3CCC(C(=O)NC4CCCCC4)CC3)c2)cc1CC(C)C [Example 1.004]", 40),
    ("O=C(CCc1ccccc1)Nc1cccc(CN2CCC(C(=O)NC3CCCCC3)CC2)c1 [Example 1.034]", 18),
    ("Cc1ccc(C(=O)Nc2cccc(CN3CCC(C(=O)NC4CCCCC4)CC3)c2)c(Cl)n1 [Example 1.070]", 40),
    ("CC(C)(C)NC(=O)C1CCN(Cc2cccc(NC(=O)CC3CCOCC3)c2)CC1 [Example 1.255]", 137),
    ("CC(C)(C)NC(=O)C1CCN(Cc2cccc(NC(=O)Cc3c(Cl)ccc(C(F)(F)F)c3Cl)c2)CC1 [Example 1.250]", 3),
    ("CC(C)(C)NC(=O)C1CCN(Cc2cccc(NC(=O)C3C(C)(C)C3(C)C)c2)CC1 [Example 1.260]", 0.9),
]

###

- system name: CXCR7 (Homo sapiens (Human), UniProt P25106)
- Sequence (P25106 whole entry): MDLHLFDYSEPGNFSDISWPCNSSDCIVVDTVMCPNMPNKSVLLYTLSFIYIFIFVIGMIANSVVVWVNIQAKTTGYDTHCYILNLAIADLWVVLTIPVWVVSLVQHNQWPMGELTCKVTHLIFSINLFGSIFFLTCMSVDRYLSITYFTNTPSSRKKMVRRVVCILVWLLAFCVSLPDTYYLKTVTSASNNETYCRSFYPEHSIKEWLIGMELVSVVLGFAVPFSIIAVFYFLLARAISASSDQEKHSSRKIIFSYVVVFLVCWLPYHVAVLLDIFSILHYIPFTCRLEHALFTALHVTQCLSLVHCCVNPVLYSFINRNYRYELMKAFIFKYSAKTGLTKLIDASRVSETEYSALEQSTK
- Sequence (P32121 whole entry partner): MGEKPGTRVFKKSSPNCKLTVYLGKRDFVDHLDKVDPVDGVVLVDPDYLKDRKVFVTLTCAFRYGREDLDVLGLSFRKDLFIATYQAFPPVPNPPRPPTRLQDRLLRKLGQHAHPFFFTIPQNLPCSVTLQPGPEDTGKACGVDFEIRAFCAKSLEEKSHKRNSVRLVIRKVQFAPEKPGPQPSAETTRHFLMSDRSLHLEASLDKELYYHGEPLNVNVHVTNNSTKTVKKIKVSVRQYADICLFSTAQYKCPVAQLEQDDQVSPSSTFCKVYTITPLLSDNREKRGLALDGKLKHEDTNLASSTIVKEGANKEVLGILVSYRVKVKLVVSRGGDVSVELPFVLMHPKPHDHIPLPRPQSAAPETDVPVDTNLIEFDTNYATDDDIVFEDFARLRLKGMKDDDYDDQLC
- procedure details: PathHunter CHO-K1 CXCR7 b-arrestin assay (agonistic activity)
- measurement parameters: PathHunter CHO-K1 CXCR7 b-arrestin cell line
pEC50: −log10 of the molar value.
Entries and their pEC50
recorded metric: pEC50

# compound, numeric value
rows = [
    ("COc1cccc(CC(=O)Nc2cccc(CN3CCC(C(=O)NC4CCCCC4)CC3)c2)c1 [Example 1.047]", 7.77),
    ("Cc1cnc(C(=O)Nc2cccc(CN3CCC(C(=O)NC4CCCCC4)CC3)c2)cn1 [Example 1.142]", 8.70),
    ("CC(C)(C)NC(=O)C1CCN(Cc2cccc(NC(=O)Cc3c(Cl)cccc3Cl)c2)CC1 [Example 1.245]", 9.00),
    ("CC(C(=O)Nc1cccc(CN2CCC(C(=O)NC(C)(C)C)CC2)c1)c1ccccc1 (racemic) [Example 1.079]", 8.52),
    ("Cc1ccc(CN2CCC(C(=O)NC(C)(C)C)CC2)cc1NC(=O)c1cccc(C(F)(F)F)n1 [Example 1.301]", 8.70),
    ("O=C(Nc1cccc(CN2CCC(C(=O)NC3CCCCC3)CC2)c1)C1CCCCCC1 [Example 1.152]", 8.00),
    ("COc1cncc(C(=O)Nc2cccc(CN3CCC(C(=O)NC(C)(C)C)CC3)c2)c1 [Example 4.014]", 8.10),
    ("CN(C)c1ccc(C(=O)Nc2cccc(CN3CCC(C(=O)NC4CCCCC4)CC3)c2)cc1 [Example 1.096]", 7.40),
]

Taken from patent US9428456B2.
